System: 885512-296-R-J2-PDC complex spheroid growth, % test/control;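 also: spheroids exposed to compounds for seven days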
test protocol: Anticancer human tumor 885512-296-R-J2-PDC patient-derived breast carcinoma cell line growth inhibition [AhR]
details: second compound 1 µM; first compound 0.000949 µM; stronger effect = lower value
Text: Multicellular complex tumor spheroid response to aryl hydrocarbon receptor antagonists in combination with a variety of drugs and investigational agents in selected tumor cell lines […] Compounds. […] If the clinical Cmax for an agent had not been determined, the highest concentration tested was 10 microM (Table 1). […]

compound	unit label	viability, T/C
CC(C)CC(NC(=O)C(Cc1ccccc1)NC(=O)c1cnccn1)B(O)O (stereo unspecified) + CC(CO)NC(=O)c1cc(-c2ccc(Cl)cc2)nn(-c2cnn(C)c2)c1=O	%	98.4
CCc1c2c(nc3ccc(O)cc13)-c1cc3c(c(=O)n1C2)COC(=O)[C@]3(O)CC + Cc1cncc(-c2nc(NCCc3c[nH]c4ccccc34)c3ncn(C(C)C)c3n2)c1	%	13.7
CC(C)CC(NC(=O)C(Cc1ccccc1)NC(=O)c1cnccn1)B(O)O (stereo unspecified) + Cc1cncc(-c2nc(NCCc3c[nH]c4ccccc34)c3ncn(C(C)C)c3n2)c1	%	79.2
CC(C)CC(NC(=O)C(Cc1ccccc1)NC(=O)c1cnccn1)B(O)O (stereo unspecified) + Cc1ccccc1N=Nc1ccc(NC(=O)c2ccnn2C)c(C)c1	%	111
Nc1ncn(C2CC(O)C(CO)S2)c(=O)n1 (stereo unspecified) + CC(CO)NC(=O)c1cc(-c2ccc(Cl)cc2)nn(-c2cnn(C)c2)c1=O	%	106
Nc1ncn(C2CC(O)C(CO)S2)c(=O)n1 (stereo unspecified) + Cc1cncc(-c2nc(NCCc3c[nH]c4ccccc34)c3ncn(C(C)C)c3n2)c1	%	67.6
